src = patent US20250002608A1

Biological target: TRPV1-pHluorin (Mus musculus)
Construct: fused on or other part: superecliptic pHluorin (ecliptic GFP, EcGFP) inserted into the extracellular turret between His and Lys (615/616; H614/K615 elsewhere in the source)
Sequence (Q704Y3 1-615 limits assumed): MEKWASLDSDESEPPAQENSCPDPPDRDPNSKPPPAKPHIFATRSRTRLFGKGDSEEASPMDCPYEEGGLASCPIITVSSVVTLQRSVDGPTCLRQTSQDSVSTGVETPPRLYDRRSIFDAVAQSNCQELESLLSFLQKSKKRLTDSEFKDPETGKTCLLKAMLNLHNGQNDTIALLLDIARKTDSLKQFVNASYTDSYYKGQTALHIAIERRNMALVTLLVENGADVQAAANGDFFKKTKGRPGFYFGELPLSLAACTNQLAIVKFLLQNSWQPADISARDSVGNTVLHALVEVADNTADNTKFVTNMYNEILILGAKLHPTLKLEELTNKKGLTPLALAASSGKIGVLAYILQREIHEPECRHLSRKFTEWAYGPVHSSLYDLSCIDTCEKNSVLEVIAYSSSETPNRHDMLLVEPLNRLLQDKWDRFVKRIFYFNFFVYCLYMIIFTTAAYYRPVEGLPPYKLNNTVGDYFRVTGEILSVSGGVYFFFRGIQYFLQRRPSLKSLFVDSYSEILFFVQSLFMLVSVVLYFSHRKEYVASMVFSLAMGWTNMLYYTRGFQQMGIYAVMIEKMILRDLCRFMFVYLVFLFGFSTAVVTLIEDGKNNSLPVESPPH
Sequence (Q704Y3 616-839 limits assumed): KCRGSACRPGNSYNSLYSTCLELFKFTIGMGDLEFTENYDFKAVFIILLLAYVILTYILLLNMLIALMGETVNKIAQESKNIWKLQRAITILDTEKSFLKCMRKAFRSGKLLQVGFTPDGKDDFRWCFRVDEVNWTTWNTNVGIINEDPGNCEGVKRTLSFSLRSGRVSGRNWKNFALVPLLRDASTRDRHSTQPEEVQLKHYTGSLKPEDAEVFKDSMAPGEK
Test: Capsaicin dose-response by calcium imaging on DRG neurons from TRPV1-pHluorin mice
Settings: read-out: EC50 of dose-response curve evoked by capsaicin, room temperature (22° C.), n=28
OBSERVABLE: EC50 (nM)
Response body: numeric value in nM, unit text excluded.

Recorded result, COc1cc(CNC(=O)CCCC/C=C/C(C)C)ccc1O , EC50: 1060
